System: MCF7/PRLR tumors
Test: MCF7/PRLR breast cancer xenograft, tumor size and tumor growth inhibition
Assay type: in vivo, NCr nude mice
Details: MCF7/PRLR tumors TRIAL #1; NCr Nude mice; multi-dose 15 mg/kg; Day 52
READOUT LABEL: Final Tumor size mm^3 (mean ± SEM) (mm^3)
Please reply with the bare figure in mm^3 and do not write the unit itself.

H1H6975N: anti-PRLR antibody, human IgG1 Fc form of H2M6975N of Table 1; HCVR/LCVR SEQ ID NOs 370/378 (antibody, V domains shown, human IgG1 Fc) VH: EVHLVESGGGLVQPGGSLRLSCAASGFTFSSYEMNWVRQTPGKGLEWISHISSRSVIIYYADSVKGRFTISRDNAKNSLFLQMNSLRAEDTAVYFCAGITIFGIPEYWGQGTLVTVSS VL: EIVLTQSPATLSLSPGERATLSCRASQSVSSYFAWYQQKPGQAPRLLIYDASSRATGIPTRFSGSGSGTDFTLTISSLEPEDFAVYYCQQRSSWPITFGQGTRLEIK; 659

// below: Final Tumor size mm^3 (mean ± SEM) requested for another molecule
Inquiry: Recorded Final Tumor size mm^3 (mean ± SEM) of H1H6953N: anti-PRLR antibody, human IgG1 Fc form of H1M6953N of Table 1; HCVR/LCVR SEQ ID NOs 274/282 (antibody, V domains shown) VH: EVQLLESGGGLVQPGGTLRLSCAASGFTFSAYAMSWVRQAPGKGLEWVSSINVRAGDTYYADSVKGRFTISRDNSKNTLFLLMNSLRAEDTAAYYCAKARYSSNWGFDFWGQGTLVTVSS VL: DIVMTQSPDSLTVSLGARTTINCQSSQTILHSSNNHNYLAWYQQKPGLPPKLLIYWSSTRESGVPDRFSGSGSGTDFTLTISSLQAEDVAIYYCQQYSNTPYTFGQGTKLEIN , please.
Reply text: 421
